assay: Plasma Protein Binding, mouse; format: in vitro ADME
Quantity: fraction unbound

> print(dat)
                                   molecule          quantity  reported.value
1  CCn1c(CN(C)C)nc2c(O)c(Cl)cc(Cl)c2c1=O.Cl [Compound F4268]  fraction unbound  0.178 to 0.203
2  CN(C)Cc1nc2c(O)c(Cl)cc(Cl)c2c(=O)n1C [Compound F4269]  fraction unbound  0.582 to 0.658

* * *

test: Plasma Protein Binding, human; format: in vitro ADME
Reported fraction unbound values for the following molecules.
Quantity: fraction unbound

> print(dat)
                                 smiles.str          quantity  reported.value
1       CCNCc1nc2c(O)c(Cl)cc(Cl)c2c(=O)n1CC  fraction unbound  0.023 to 0.024
2  CCN(CC)Cc1nc2c(O)c(Cl)cc(Cl)c2c(=O)n1CC1CC1  fraction unbound  0.008 to 0.013
3      CN(C)Cc1nc2c(O)c(Cl)cc(Cl)c2c(=O)n1C  fraction unbound  0.054 to 0.059
